assay: Microsomal metabolic stability assay; type: in vitro ADME; settings: pH 7.4; human liver microsomes, 0.5 mg/mL protein, 1 μM compound; read-out: Human LM Clint
observed_property: microsomal CLint at 1 μM

Known results for compounds:
[2H]C([2H])([2H])NC(=O)c1cnc(NC(=O)C2CC2)cc1Nc1cn(C)c2ccn(CC)c(=O)c12 | 28.6 µL/min/mg
[2H]C([2H])([2H])NC(=O)c1cnc(Nc2ccc(F)cn2)cc1Nc1ncc2cnn(CC)c2c1OC | 29.2 µL/min/mg
[2H]C([2H])([2H])NC(=O)c1nnc(NC(=O)C2CC2)cc1Nc1csc2ccn(CC)c(=O)c12 | 77.7 µL/min/mg
[2H]C([2H])([2H])NC(=O)c1nnc2cc1Nc1cc(cc(-c3ncn(C)n3)c1OC)COCc1nc(ccc1F)N2 | 7.54 µL/min/mg
[2H]C([2H])([2H])NC(=O)c1cnc2cc1Nc1cc(cc(-c3ncc(F)cn3)c1OC)COCc1nc(ccc1F)N2 | < 11.5 µL/min/mg

Could you share which microsomal CLint at 1 μM value was measured for [2H]C([2H])([2H])NC(=O)c1cnc(NC(=O)C2CC2)cc1Nc1cn(C)c2cnn(C(C)C(F)(F)F)c(=O)c12 (stereo not shown) ?
< 11.5 µL/min/mg

GET /values?readout=microsomal CLint at 1 μM&item= CNC(=O)c1cnc(NC(=O)C2CC2)cc1Nc1csc2c(Cl)cn(C)c(=O)c12
12.8 µL/min/mg

###

test: Microsomal metabolic stability assay; assay type: in vitro ADME; settings: pH 7.4; human liver microsomes, 0.5 mg/mL protein, 1 μM compound; read-out: Human LM T½
observed_property: log10 of half-life at 1 μM (log10 of the value in h)
# values: log10(half-life at 1 μM), units h

[2H]C([2H])([2H])NC(=O)c1cnc(NC(=O)C2CC2)cc1Nc1cn(CCOC)c2ccn(C(C)C(F)(F)F)c(=O)c12 (centres unmarked) | -0.44
[2H]C([2H])([2H])NC(=O)c1cnc2cc1Nc1cc(cc(-c3ncn(C)n3)c1OC)COCc1nc(ccc1C)N2 | 0.26
[2H]C([2H])([2H])NC(=O)c1nnc2cc1Nc1cc(cc(-c3ncn(C)n3)c1OC)COCc1cccc(n1)N2 | 0.55
[2H]C([2H])([2H])NC(=O)c1cnc2nc1Nc1cc(cc(-c3ncn(C)n3)c1OC)COCc1cc(F)cc(c1)N2 | -0.08

Sample [2H]C([2H])([2H])NC(=O)c1nnc2cc1Nc1cc(cc(-n3cnc(C)n3)c1OC)COCc1nc(ccc1F)N2 — what was its log10 of half-life at 1 μM?
0.03

// lookup log10 of half-life at 1 μM for [2H]C([2H])([2H])NC(=O)c1cnc(NC(=O)C2CC2)cc1Nc1cn(C)c2ccn(CC(F)(F)F)c(=O)c12
-0.33

Which log10 of half-life at 1 μM value belongs to CNC(=O)c1cnc(NC(=O)C2CC2)cc1Nc1csc2ccn(C)c(=O)c12 ?
-0.08

May I ask what log10 of half-life at 1 μM has been recorded for [2H]C([2H])([2H])NC(=O)c1cnc(Nc2ccn(C)n2)cc1Nc1ncc2cnn(CC)c2c1OC ?
0.28

What does the record list as log10 of half-life at 1 μM for [2H]C([2H])([2H])NC(=O)c1cnc(Nc2ccc(F)cc2)nc1Nc1cccc(-c2ncn(C)n2)c1OC ?
0.64
